Target: ENPP3 (Homo sapiens, UniProt O14638)
Sequence (O14638 1-875): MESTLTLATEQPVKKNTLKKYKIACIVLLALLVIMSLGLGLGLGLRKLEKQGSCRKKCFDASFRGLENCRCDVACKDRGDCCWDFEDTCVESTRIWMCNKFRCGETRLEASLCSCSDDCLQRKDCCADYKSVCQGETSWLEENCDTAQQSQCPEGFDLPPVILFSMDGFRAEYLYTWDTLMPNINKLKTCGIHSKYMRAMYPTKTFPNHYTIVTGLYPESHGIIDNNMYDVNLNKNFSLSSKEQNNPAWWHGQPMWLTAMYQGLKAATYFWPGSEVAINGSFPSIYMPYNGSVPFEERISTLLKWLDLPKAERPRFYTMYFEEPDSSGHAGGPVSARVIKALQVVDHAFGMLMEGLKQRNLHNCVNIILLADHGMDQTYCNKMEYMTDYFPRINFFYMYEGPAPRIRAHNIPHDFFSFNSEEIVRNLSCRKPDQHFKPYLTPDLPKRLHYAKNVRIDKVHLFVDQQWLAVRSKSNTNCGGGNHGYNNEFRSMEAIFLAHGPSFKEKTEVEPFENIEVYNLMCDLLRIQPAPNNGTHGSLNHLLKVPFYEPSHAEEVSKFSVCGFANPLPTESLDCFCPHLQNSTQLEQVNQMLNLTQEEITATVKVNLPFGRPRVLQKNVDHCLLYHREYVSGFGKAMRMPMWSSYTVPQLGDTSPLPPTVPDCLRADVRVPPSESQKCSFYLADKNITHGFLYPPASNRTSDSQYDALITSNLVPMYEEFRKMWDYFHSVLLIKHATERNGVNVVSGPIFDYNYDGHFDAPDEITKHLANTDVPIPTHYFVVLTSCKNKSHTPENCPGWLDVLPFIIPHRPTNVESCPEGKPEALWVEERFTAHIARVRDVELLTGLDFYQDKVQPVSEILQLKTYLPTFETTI
Test: ENPP3 Km ATP assay
Assay type: biochemical
Details: ATP at Km
Overview of recorded IC50 for various compounds

Below, each entry is followed by its recorded IC50 result.
Cc1ccccc1CCC(=O)NC1CCN(c2ncnc3c(C)csc23)CC1	> 20 µM
CCNc1nc(NCc2ccc(S(N)(=O)=O)cc2)c2cnn(C)c2n1	0.1 to 1 µM
COc1cc(S(N)(=O)=O)ccc1CNc1ccnc2c1cnn2C	1 to 20 µM

Query: Indicate its recorded IC50; the compound in question is Cc1csc2c(N3CCC(NCCCc4ccncc4)CC3)nc(-c3ccccn3)nc12
Response: > 20 µM

Query: Tell us which IC50 value is on record for Cc1nc(NCc2ccc(S(N)(=O)=O)cc2)c2c3c(sc2n1)CCCC3
Response: 1 to 20 µM

Query: Supply recorded IC50 for COc1nc(NCc2ccc(S(N)(=O)=O)cc2)c2cnn(C)c2n1 here.
Response: 0.1 to 1 µM

Query: Provide one value: measured IC50 of Cc1ccc(CNc2nc(-c3ccccn3)nc3scc(-c4ccccc4)c23)cc1
Response: > 20 µM

Query: Please give measured IC50 of the following entry: CN(C)CCNc1nc(NCc2ccc(S(N)(=O)=O)cc2)c2c(-c3ccccc3)csc2n1
Response: < 0.1 µM

Query: Identify the reported IC50 for the following entry. NS(=O)(=O)c1ccc(CNc2ncnc3scc(-c4ccccc4)c23)cc1
Response: < 0.1 µM

====

A collection of molecules and their measured IC50
Biological target: human ENPP1 (Homo sapiens, UniProt P22413)
Construct: made in house
Sequence (P22413 1-925): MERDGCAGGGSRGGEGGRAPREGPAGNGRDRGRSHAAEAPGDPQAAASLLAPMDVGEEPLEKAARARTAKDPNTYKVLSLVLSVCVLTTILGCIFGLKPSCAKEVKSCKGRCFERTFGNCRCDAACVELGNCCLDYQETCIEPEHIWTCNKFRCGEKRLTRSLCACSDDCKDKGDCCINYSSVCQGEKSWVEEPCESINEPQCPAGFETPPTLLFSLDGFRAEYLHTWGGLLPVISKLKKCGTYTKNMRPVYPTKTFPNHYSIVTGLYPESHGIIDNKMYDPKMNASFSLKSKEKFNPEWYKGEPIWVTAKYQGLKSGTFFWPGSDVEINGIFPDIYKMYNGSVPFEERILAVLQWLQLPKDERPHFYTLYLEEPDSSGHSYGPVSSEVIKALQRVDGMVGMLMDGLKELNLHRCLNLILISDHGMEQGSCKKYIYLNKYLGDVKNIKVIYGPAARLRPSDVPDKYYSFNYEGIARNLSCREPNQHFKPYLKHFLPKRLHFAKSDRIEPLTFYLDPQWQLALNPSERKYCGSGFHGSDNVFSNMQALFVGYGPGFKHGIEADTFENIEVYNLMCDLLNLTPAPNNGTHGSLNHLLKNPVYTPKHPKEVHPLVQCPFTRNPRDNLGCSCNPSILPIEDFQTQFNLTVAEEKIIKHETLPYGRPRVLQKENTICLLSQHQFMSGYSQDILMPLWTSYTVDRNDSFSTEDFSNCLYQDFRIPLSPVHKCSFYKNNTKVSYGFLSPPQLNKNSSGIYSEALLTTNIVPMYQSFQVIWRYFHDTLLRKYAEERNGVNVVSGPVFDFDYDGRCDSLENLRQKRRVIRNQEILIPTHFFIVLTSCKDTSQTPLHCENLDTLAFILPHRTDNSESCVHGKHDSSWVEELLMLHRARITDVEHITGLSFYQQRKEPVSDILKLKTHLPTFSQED
Experiment: ENPP1 assay with ATP substrate (Transcreener AMP2/GMP2 TR-FRET)
Assay type: biochemical
Settings: 1 hour at room temperature

These solved cases illustrate the format of a correct answer.
Cc1cc(CCCNC2CCN(c3ncnc4c(C)csc34)CC2)ccn1	0.1 to 1 µM
COc1cc(CNc2ccnc3c2cnn3C)ccc1S(N)(=O)=O	1 to 20 µM

Now look at this one.
Query: Check human ENPP1 (Homo sapiens, UniProt P22413) data and give IC50 for Cc1nc(NCc2ccc(S(N)(=O)=O)cc2)c2c3c(sc2n1)CCCC3 .
Response: > 20 µM

Provenance of the data: patent US12643910B2
